FYI, the data here is from patent US9181266B2.

Measured Target: PARP2 (Mus musculus (Mouse), UniProt O88554)
Sequence (O88554 whole entry): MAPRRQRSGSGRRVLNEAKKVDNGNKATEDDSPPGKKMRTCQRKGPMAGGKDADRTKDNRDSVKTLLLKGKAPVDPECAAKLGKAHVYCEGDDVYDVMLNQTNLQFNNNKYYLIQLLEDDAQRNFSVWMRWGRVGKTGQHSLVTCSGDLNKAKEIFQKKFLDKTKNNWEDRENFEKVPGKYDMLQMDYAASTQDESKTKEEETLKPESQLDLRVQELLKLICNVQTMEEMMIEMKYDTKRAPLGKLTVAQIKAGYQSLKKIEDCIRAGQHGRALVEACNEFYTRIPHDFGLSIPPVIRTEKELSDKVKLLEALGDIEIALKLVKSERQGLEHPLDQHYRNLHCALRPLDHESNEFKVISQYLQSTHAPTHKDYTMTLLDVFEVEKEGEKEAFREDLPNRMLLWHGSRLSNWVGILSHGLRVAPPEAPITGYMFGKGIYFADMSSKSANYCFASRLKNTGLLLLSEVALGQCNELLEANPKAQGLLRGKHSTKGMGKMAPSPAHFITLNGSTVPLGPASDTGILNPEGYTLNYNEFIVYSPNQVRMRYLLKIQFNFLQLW
Run Description: PARP2 autoparsylation assay (LC/MS detection of nicotinamide)
Assay type: biochemical
Test Settings: 20 nM enzyme, 250 μM β-NAD+, 60 min
Protocol: The autoparsylation activity of the TNKS 1/2 or PARP1/2 enzymes was measured by the liquid chromatography-mass spectrometry (LC/MS) detection of nicotinamide as readout. Compound activity in inhibiting the TNKS and PARP autoparsylation was evaluated by IC50 measurements.
IC50 overview

| Molecule | IC50 |
| --- | --- |
| COc1cccc(CN(Cc2nc3c(c(=O)[nH]2)COCC3)C(=O)CN2CCC(C(=O)c3ccc(F)cc3)CC2)c1 [Example 18] | > 19 µM |
| O=C(c1ccc(F)cc1)C1CCN(CC(=O)N(Cc2nc3c(c(=O)[nH]2)COCC3)CC(F)(F)F)CC1 [Example 48] | > 19 µM |
| C[C@H](c1ccc(F)cc1)N(Cc1nc2c(c(=O)[nH]1)COCC2)C(=O)CN1CCC(C(=O)c2ccc(F)cc2)CC1 [Example 36] | > 19 µM |

---

Measured Target: Human PARP1 (Homo sapiens (Human), UniProt P09874)
Sequence (P09874 whole entry): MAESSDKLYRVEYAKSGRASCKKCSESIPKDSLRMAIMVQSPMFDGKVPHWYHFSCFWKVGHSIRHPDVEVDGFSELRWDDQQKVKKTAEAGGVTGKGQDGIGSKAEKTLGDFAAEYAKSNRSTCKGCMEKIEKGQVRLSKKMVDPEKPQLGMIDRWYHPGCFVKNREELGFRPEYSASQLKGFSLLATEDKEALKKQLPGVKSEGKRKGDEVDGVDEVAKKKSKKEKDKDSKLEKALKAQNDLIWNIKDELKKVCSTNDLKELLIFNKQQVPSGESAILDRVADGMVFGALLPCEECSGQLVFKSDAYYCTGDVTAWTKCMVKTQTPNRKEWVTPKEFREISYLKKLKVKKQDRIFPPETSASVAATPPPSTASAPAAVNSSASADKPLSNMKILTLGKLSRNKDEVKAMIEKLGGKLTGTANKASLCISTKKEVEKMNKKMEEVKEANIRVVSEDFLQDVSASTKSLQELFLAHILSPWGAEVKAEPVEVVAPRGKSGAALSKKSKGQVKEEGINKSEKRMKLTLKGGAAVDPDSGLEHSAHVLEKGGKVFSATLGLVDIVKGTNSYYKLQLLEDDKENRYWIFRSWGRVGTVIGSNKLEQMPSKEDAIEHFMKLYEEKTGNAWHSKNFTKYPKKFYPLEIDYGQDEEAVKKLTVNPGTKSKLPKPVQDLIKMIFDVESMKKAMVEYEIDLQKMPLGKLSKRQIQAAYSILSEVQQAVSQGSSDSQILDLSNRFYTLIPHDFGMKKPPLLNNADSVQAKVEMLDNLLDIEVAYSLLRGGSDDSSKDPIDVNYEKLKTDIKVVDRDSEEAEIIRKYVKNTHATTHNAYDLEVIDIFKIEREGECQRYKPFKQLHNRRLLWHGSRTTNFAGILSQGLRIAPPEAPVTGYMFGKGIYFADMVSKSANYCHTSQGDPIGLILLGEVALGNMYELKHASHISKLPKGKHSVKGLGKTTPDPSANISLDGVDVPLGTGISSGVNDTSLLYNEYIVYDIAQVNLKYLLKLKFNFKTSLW
pIC50: −log10 of the molar value.
pIC50 overview
Measured Attribute: pIC50

| Compound | Reported Value |
| --- | --- |
| O=C(CN1CCC2(CC1)Cc1cc(F)ccc1C2=O)NCc1nc2c(c(=O)[nH]1)COCC2 [Example 61] | 5.19 |
| O=C(c1ccc(F)cc1)C1CCN(CC(=O)N(CCF)Cc2nc3c(c(=O)[nH]2)COCC3)CC1 [Example 44] | < 4.72 |
| CC[C@H](C)N(Cc1nc2c(c(=O)[nH]1)COCC2)C(=O)CN1CCC(C(=O)c2ccc(F)cc2)CC1 [Example 31] | < 4.72 |
| CC(C)N(Cc1nc2c(c(=O)[nH]1)COCC2)C(=O)CN1CCC(C(=O)c2ccc(F)cc2)CC1 [Example 33] | < 4.72 |
| COc1cccc(C(=O)C2CCN(CC(=O)N(Cc3nc4c(c(=O)[nH]3)COCC4)CC(F)F)CC2)c1 [Example 73] | < 4.72 |
| O=C(c1ccc(F)cc1)C1CCN(CC(=O)N(Cc2nc3c(c(=O)[nH]2)COCC3)Cc2ccccc2F)CC1 [Example 39] | < 4.72 |
| O=C(c1ccc(OC(F)(F)F)cc1)C1CCN(CC(=O)N(Cc2nc3c(c(=O)[nH]2)COCC3)CC2CC2)CC1 [Example 70] | < 4.72 |
| CC[C@H](C)CN(Cc1nc2c(c(=O)[nH]1)COCC2)C(=O)CN1CCC(C(=O)c2ccc(F)cc2)CC1 [Example 25] | < 4.72 |
| O=C(CN1CCC(C(=O)c2ccc(OCC3CC3)cc2)CC1)NCc1nc2c(c(=O)[nH]1)COCC2 [Example 85] | 5.35 |
| O=C(c1ccc(F)cc1)C1CCN(CC(=O)N(Cc2nc3c(c(=O)[nH]2)COCC3)CC(F)F)CC1 [Example 45] | < 4.72 |
| O=C(CN1CCC(C(=O)c2ccc(OCC3CCC3)cc2)CC1)NCc1nc2c(c(=O)[nH]1)COCC2 [Example 86] | 5.69 |
| CC(c1ccc(F)cc1F)N(Cc1nc2c(c(=O)[nH]1)COCC2)C(=O)CN1CCC(C(=O)c2ccc(F)cc2)CC1 (stereo not drawn) [Example 37] | < 4.72 |
| CCOc1ccc(C(=O)C2CCN(CC(=O)NCc3nc4c(c(=O)[nH]3)COCC4)CC2)cc1 [Example 66] | 5.19 |
| O=C(c1ccc(F)cc1)C1CCN(CC(=O)N(Cc2nc3c(c(=O)[nH]2)COCC3)C[C@@H]2CCCO2)CC1 [Example 28] | < 4.72 |
| COc1ccc(CN(Cc2nc3c(c(=O)[nH]2)COCC3)C(=O)CN2CCC(C(=O)c3ccc(F)cc3)CC2)cc1 [Example 16] | < 4.72 |
| N#Cc1ccc(CN(Cc2nc3c(c(=O)[nH]2)COCC3)C(=O)CN2CCC(C(=O)c3ccc(F)cc3)CC2)s1 [Example 46] | < 4.72 |
| O=C(c1ccc(F)cc1)C1CCN(CC(=O)N(Cc2nc3c(c(=O)[nH]2)COCC3)CC(F)(F)F)CC1 [Example 48] | < 4.72 |
| O=C(c1ccc(F)cc1)C1CCN(CC(=O)N(Cc2nc3c(c(=O)[nH]2)COCC3)C[C@H]2CCCO2)CC1 [Example 29] | < 4.72 |
| COc1ccc(C(=O)C2CCN(CC(=O)NCc3nc(C)c(C)c(=O)[nH]3)CC2)cc1 [Example 12] | < 4.72 |
| O=C(CN1CCC(C(=O)c2ccc(OC3CCOCC3)cc2)CC1)NCc1nc2c(c(=O)[nH]1)COCC2 [Example 87] | 5.24 |
| C[C@H](c1ccc(F)cc1)N(Cc1nc2c(c(=O)[nH]1)COCC2)C(=O)CN1CCC(C(=O)c2ccc(F)cc2)CC1 [Example 36] | < 4.72 |
